- Test system: U-937
- PROCEDURE_DETAILS: Inhibition of human U937 cell proliferation after 48 hrs by MTT assay
- Format: functional, cell-based
- RECORDED_CONDITIONS: U-937, 48 h
Consider the following compounds; for each one, report its IC50.
Numbers only, in nM.

| SMILES_STRUCTURE | IC50 (nM) |
| --- | --- |
| COc1cc(/C=C/C(=O)NO)ccc1OC[C@H](Cc1c[nH]c2ccccc12)NC(=O)[C@@H](NC(=O)OC(C)(C)C)[C@@H](C)O | 2700 |

# batch size: 6; output IC50 per entry
1. COc1cc(/C=C/C(=O)NO)ccc1OC[C@H](Cc1c[nH]c2ccccc12)NC(=O)[C@H](CCSC)NC(=O)OC(C)(C)C
2. COc1cc(/C=C/C(=O)NO)ccc1OC[C@H](Cc1c[nH]c2ccccc12)NC(=O)[C@H](CO)NC(=O)OC(C)(C)C
3. O=C(CCCCCCC(=O)Nc1ccccc1)NO
4. COc1cc(/C=C/C(=O)NO)ccc1OC[C@H](Cc1c[nH]c2ccccc12)NC(=O)CNC(=O)OC(C)(C)C
5. CCCC(CCC)C(=O)N[C@H](COc1ccc(/C=C/C(=O)NO)cc1OC)Cc1c[nH]c2ccccc12
6. COc1cc(/C=C/C(=O)NO)ccc1OC[C@H](Cc1c[nH]c2ccccc12)NC(=O)[C@H](C)NC(=O)OC(C)(C)C

1. 2200
2. 3900
3. 2300
4. 3100
5. 1800
6. 2200

====

- ASSAYED_SYSTEM: Histone deacetylase
- PROCEDURE_DETAILS: Inhibition of HDAC in human HeLa cell nuclear extract using Boc-Lys(acetyl)-AMC as substrate preincubated with enzyme for 5 mins prior to substrate addition measured after 30 mins by fluorescence assay
- Type: protein assay
Consider the cut-off 500 nM. If the recorded IC50 is strictly smaller, the label is 1; if not, the label is -1.

Sample answers from the record:
| SMILES_STRUCTURE | QUALITATIVE_LABEL |
| --- | --- |
| COc1cc(/C=C/C(=O)NO)ccc1OC[C@H](Cc1c[nH]c2ccccc12)NC(=O)CNC(=O)OC(C)(C)C | 1 |
| COc1cc(/C=C/C(=O)NO)ccc1OC[C@H](Cc1c[nH]c2ccccc12)NC(=O)[C@H](C)NC(=O)OC(C)(C)C | 1 |
| COc1cc(/C=C/C(=O)NO)ccc1OC[C@H](Cc1c[nH]c2ccccc12)NS(=O)(=O)c1ccc(Cl)cc1 | -1 |

For the next question, use this molecule.
is_below(IC50, 500 nM) for COc1cc(/C=C/C(=O)NO)ccc1OC[C@H](Cc1c[nH]c2ccccc12)NC(=O)[C@H](Cc1ccccc1)NC(=O)OC(C)(C)C ?
-1

====

- ASSAYED_SYSTEM: Histone deacetylase
- PROCEDURE_DETAILS: Inhibition of HDAC in human HeLa cell nuclear extract using Boc-Lys(acetyl)-AMC as substrate preincubated with enzyme for 5 mins prior to substrate addition measured after 30 mins by fluorescence assay
- Assay type: protein assay
IC50 under 600 nM gets yes (1), anything at or over 600 nM gets no (0).

# count of solved cases: 3
| SMILES_STRUCTURE | ASSAYED_SYSTEM | QUALITATIVE_LABEL |
| --- | --- | --- |
| CC[C@H](C)[C@H](NC(=O)OC(C)(C)C)C(=O)N[C@H](COc1ccc(/C=C/C(=O)NO)cc1OC)Cc1c[nH]c2ccccc12 | Histone deacetylase | yes (1) |
| COc1cc(/C=C/C(=O)NO)ccc1OC[C@H](Cc1c[nH]c2ccccc12)NC(=O)[C@@H](NC(=O)OC(C)(C)C)C(C)C | Histone deacetylase | yes (1) |
| COc1cc(/C=C/C(=O)NO)ccc1OC[C@H](Cc1c[nH]c2ccccc12)NS(=O)(=O)c1ccc(NC(C)=O)cc1 | Histone deacetylase | no (0) |

Decide: IC50 of COc1cc(/C=C/C(=O)NO)ccc1OC[C@H](Cc1c[nH]c2ccccc12)NC(=O)OC(C)(C)C strictly below 600 nM?
no (0)

IC50 strictly < 600 nM for this compound? COc1cc(/C=C/C(=O)NO)ccc1OC[C@H](Cc1c[nH]c2ccccc12)NC(=O)[C@H](CC(C)C)NC(=O)OC(C)(C)C
yes (1)

Taken from ChEMBL document CHEMBL2331319.
